Would you mind telling me the reported growth of each entry?
Test system: SK-MEL-2 melanoma
Test: NCI-60 one-dose screen, 48 h (100 = growth as untreated, 0 = no growth, -100 = all killed)
Conditions: 10 µM unless noted
Compounds without any hit were thinned out: in the full panel of roughly 83,000, 20% have a hit.
Quick reminder: number only, in %, skip the unit.

q: Tell me reported growth for CC(=O)c1cc2ccccc2o1 , tested with SK-MEL-2 melanoma.
a: 97.9

q: Tell me reported growth for COc1ccc(/C=N/NC(N)=S)cc1 , tested with SK-MEL-2 melanoma.
a: 97.5

q: Tell me reported growth for O=[N+]([O-])c1ccc(N2CCN=N2)cc1 , tested with SK-MEL-2 melanoma.
a: 92.2

q: Tell me reported growth for CCOCCC(=O)O , tested with SK-MEL-2 melanoma.
a: 109

q: Tell me reported growth for COC(=O)c1ccccc1Cl , tested with SK-MEL-2 melanoma.
a: 108

q: Tell me reported growth for COC(=O)c1cc(C(=O)OC)cc([N+](=O)[O-])c1 , tested with SK-MEL-2 melanoma.
a: 109

q: Tell me reported growth for Cc1cc(=NO)cc(C)n1O , tested with SK-MEL-2 melanoma.
a: 113

q: Tell me reported growth for CCCC(=O)Oc1ccc(CC)cc1 , tested with SK-MEL-2 melanoma.
a: 107

q: Tell me reported growth for CC(C)(C)OC(=O)c1ccc(NCc2cc(O)ccc2O)cc1 , tested with SK-MEL-2 melanoma.
a: 47.7

q: Tell me reported growth for CC(C)=NOC(C)C(=O)O (configuration not stated) , tested with SK-MEL-2 melanoma.
a: 107

q: Tell me reported growth for Cc1cccc(Cl)c1N , tested with SK-MEL-2 melanoma.
a: 121

q: Tell me reported growth for C/C(=C\c1ccccc1)C(O)C(=O)c1nc2ccc([N+](=O)[O-])cc2[nH]c1=O (configuration not stated) , tested with SK-MEL-2 melanoma.
a: 93.6

q: Tell me reported growth for O=C1Cc2ccccc2C(=O)N1 , tested with SK-MEL-2 melanoma.
a: 92.4

q: Tell me reported growth for O=C(c1ccccc1)C1(Br)CCCCC1 , tested with SK-MEL-2 melanoma.
a: 104

q: Tell me reported growth for Cc1ccc(NC(=S)N/C=C(\c2ccccc2)S(=O)Cc2ccccc2)c(C)c1 (configuration not stated) , tested with SK-MEL-2 melanoma.
a: 103

q: Tell me reported growth for O=C1c2ccccc2C(c2ccccc2)C1c1ccccc1 (configuration not stated) , tested with SK-MEL-2 melanoma.
a: 91.1

q: Tell me reported growth for COc1ccc(CCO)cc1 , tested with SK-MEL-2 melanoma.
a: 91.7

q: Tell me reported growth for Cc1nc(Nc2ccc(Cl)cc2)c2cnn(-c3ccccc3)c2n1 , tested with SK-MEL-2 melanoma.
a: 100

q: Tell me reported growth for COc1ccc(S(=O)(=O)c2ccc(F)cc2)cc1 , tested with SK-MEL-2 melanoma.
a: 99

q: Tell me reported growth for O=[N+]([O-])c1cccc(N=Cc2ccccc2)c1 , tested with SK-MEL-2 melanoma.
a: 104

q: Tell me reported growth for CC(C)(C)C1CCC(=NO)CC1 (configuration not stated) , tested with SK-MEL-2 melanoma.
a: 94.5

q: Tell me reported growth for CCOP(=O)(OCC)/C(C#N)=C/c1c(C)[nH]c2ccccc12 , tested with SK-MEL-2 melanoma.
a: 99.2

q: Tell me reported growth for NNC(=O)Nc1ccccc1 , tested with SK-MEL-2 melanoma.
a: 106

q: Tell me reported growth for CN1C2C=CC(=O)C1C1C(=O)N(c3ccccc3)C(=O)C12 (configuration not stated) , tested with SK-MEL-2 melanoma.
a: 46.2

q: Tell me reported growth for Cc1cc(-c2ccc(N=Nc3c(C)nn(-c4ccc(S(=O)(=O)O)cc4)c3O)c(C)c2)ccc1N=Nc1ccc(O)c(C(=O)O)c1 , tested with SK-MEL-2 melanoma.
a: 73

q: Tell me reported growth for O=c1[nH]c(=S)[nH]n1C(=S)n1[nH]c(=S)[nH]c1=O , tested with SK-MEL-2 melanoma.
a: 106

q: Tell me reported growth for CN(C)CC(CN(C)C)C(O)c1ccccc1 (configuration not stated) , tested with SK-MEL-2 melanoma.
a: 94.4
